test system: SW48 human colorectal cancer cells (MSI-H cancer cells); assay: SW48 cell viability, CellTiter-Glo, 120 hours (Example B); conditions: Homo sapiens, SW48, 120 h, read-out: SW48 pCC50, SW48 cell viability, 120 hours incubation (converted); Table 2
Endpoint name: CC50 (µM)
The reply should be a number in µM, with the unit left off.

Examples from the recorded data:
| Compound | CC50 (µM) |
| --- | --- |
| Cc1nc2cc(S(=O)(=O)N(C)c3ccc([C@H]4CCC[C@@H](C(=O)Nc5ccc(C(F)(F)F)cc5F)[C@@H]4C(=O)O)cc3)cc(F)c2n1C [Example 126] | 0.631 |
| Cc1nc2cc(S(=O)(=O)N(C)c3cnc([C@H]4CCC[C@@H](C(=O)Nc5ccc(C(F)(F)F)cc5F)[C@@H]4C(=O)O)cn3)ccc2n1C (single isomer, unassigned) [Example 164] | 2.51 |
| O=C(O)[C@@H]1[C@@H](c2ccc(-c3ccnnc3)cc2)CCC[C@H]1C(=O)Nc1ccc(C(F)(F)F)cc1F [Example 18] | 12.6 |
| Cc1nc2cc(S(=O)(=O)N(C)c3ccc([C@@H]4C[C@H](OC[C@@H]5CCOC5)C[C@H](C(=O)Nc5ccc(C(F)(F)F)cc5F)[C@H]4C(=O)O)cc3)ccc2n1C (stereo in doubt) [Example 319] | 12.6 |

*Q* Find the recorded CC50 belonging to CN[C@H]1C[C@H](c2ccc(N(C)S(=O)(=O)c3ccc4c(c3)nc(C)n4C)cc2)[C@@H](C(=O)O)[C@H](C(=O)Nc2ccc(C(F)(F)F)cc2F)C1 (single isomer, unassigned) [Example 254] and report it.
*A* 10

====

system: SW48 human colorectal cancer cells (MSI-H cancer cells); assay: SW48 cell viability, CellTiter-Glo, 120 hours (Example B); conditions: Homo sapiens, SW48, 120 h, read-out: SW48 pCC50, SW48 cell viability, 120 hours incubation (converted); Table 2
Parameter CC50: see the listing below.
The reply should be a number in µM, with the unit left off.

Examples from the recorded data:
| Compound | Units of measure | CC50 |
| --- | --- | --- |
| Cc1nc2cc(S(=O)(=O)N(C)c3ccc([C@@H]4C[C@H](OCC5CC6CCC(C5)O6)C[C@H](C(=O)Nc5ccc(C(F)(F)F)cc5F)[C@H]4C(=O)O)cc3)ccc2n1C (single isomer, unassigned) | µM | 12.6 |
| Cc1nc2cc(S(=O)(=O)N(C)c3ccc([C@H]4C[C@H](N5CCCC(F)(F)C5)C[C@@H](C(=O)Nc5ccc(C(F)(F)F)cc5F)[C@@H]4C(=O)O)cc3)ccc2n1C (stereo in doubt) | µM | 3.98 |
| O=C(O)[C@@H]1[C@@H](c2ccc(-c3ccco3)cc2)CCC[C@H]1C(=O)Nc1ccc(C(F)(F)F)cc1F | µM | 25.1 |
| CN(c1ccc([C@H]2CCC[C@@H](C(=O)Nc3ccc(C(F)(F)F)cc3F)[C@@H]2C(=O)O)cc1)S(=O)(=O)c1ccc2c(c1)ncn2C (single isomer, unassigned) | µM | 0.398 |

Okay, next one:
*Q* Find the recorded CC50 belonging to Cc1nc2cc(S(=O)(=O)N(C)c3ccc([C@@H]4C[C@@H](N5CCC(F)(F)C5)C[C@H](C(=O)Nc5ccc(C(F)(F)F)cc5F)[C@H]4C(=O)O)cc3)ccc2n1C (stereo in doubt) and report it.
*A* 25.1

====

molecular target: recombinant full-length WRN protein (1-1432) (Homo sapiens, UniProt Q14191); construct: recombinant full-length WRN protein (1-1432); assay: WRN unwinding activity, fluorogenic 384-well assay (Example A); format: biochemical; conditions: 4 hr UNW pIC50, WRN unwinding activity, Table 2
Sequence (Q14191 whole entry): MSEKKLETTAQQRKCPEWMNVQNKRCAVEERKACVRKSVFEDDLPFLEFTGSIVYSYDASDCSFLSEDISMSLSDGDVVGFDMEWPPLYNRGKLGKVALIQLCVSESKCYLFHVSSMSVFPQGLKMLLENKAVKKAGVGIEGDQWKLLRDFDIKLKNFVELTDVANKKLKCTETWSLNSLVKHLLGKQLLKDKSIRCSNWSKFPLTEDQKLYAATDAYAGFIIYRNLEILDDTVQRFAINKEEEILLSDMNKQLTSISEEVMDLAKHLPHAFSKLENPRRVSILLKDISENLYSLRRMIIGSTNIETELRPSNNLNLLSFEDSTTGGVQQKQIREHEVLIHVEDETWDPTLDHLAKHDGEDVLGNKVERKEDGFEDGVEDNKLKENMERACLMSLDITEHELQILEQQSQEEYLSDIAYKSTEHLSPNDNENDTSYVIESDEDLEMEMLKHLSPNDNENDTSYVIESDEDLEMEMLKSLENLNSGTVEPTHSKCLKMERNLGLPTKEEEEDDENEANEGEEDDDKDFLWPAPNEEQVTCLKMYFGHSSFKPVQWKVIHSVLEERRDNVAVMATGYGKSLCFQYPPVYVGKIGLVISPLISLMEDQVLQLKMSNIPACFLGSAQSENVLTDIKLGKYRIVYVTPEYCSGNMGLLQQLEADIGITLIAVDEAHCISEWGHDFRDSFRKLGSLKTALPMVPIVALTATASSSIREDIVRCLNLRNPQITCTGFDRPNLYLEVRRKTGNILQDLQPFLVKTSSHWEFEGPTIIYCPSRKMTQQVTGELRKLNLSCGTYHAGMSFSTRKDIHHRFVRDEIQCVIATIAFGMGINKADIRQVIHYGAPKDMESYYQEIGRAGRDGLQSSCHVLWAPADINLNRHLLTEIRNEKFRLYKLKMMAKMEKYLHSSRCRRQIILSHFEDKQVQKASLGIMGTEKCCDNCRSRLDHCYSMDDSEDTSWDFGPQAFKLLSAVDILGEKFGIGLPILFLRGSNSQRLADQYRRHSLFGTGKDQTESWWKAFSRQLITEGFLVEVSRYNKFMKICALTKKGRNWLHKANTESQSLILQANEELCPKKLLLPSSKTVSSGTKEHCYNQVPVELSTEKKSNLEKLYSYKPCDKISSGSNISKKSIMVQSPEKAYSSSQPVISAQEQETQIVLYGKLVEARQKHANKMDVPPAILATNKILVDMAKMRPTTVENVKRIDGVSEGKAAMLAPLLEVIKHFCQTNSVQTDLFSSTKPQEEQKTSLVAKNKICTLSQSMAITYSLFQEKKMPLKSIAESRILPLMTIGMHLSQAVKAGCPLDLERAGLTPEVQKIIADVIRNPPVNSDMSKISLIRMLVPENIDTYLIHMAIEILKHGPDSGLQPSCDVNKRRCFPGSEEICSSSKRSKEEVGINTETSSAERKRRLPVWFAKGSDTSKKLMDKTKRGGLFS
Structures can show the parent of a compound that is named as a salt.
Endpoint name: IC50

*Q* Find the recorded IC50 belonging to CN(c1ccc([C@H]2CCC[C@@H](COc3ccc(C(F)(F)F)cc3)[C@@H]2C(=O)O)cc1)S(=O)(=O)c1cccc([C@H]2CCCNC2)c1 (relative stereo) [Example 213, formic acid salt] and report it.
*A* 39.8 nM

====

test system: SW48 human colorectal cancer cells; assay: Calculated free drug potency in SW48 cell assay, corrected with media free fraction (Example C); format: cell-based; details: Homo sapiens, SW48, SW48 pCC50 corrected with measured free fraction in cell assay media
Parameter CC50: see the listing below.
The reply should be a number in nM, with the unit left off.

| Molecule | Assay system | Endpoint name | Recorded result |
| --- | --- | --- | --- |
| Cc1nc2cc(S(=O)(=O)N(C)c3ccc([C@H]4CCC[C@@H](C(=O)Nc5ccc(C(F)(F)F)cc5F)[C@@H]4C(=O)O)cc3)ccc2n1CCN(C)C | SW48 human colorectal cancer cells | CC50 | 26.3 |
| CC(=O)N(C)[C@@H]1C[C@H](c2ccc(N(C)S(=O)(=O)c3ccc4c(c3)nc(C)n4C)cc2)[C@@H](C(=O)O)[C@H](C(=O)Nc2ccc(C(F)(F)F)cc2F)C1 (stereo in doubt) | SW48 human colorectal cancer cells | CC50 | 178 |
| Cc1nc2cc(S(=O)(=O)N(C)c3ccc([C@H]4C[C@H](N5CCC(F)(F)CC5)C[C@@H](C(=O)Nc5ccc(C(F)(F)F)cc5F)[C@@H]4C(=O)O)cc3)ccc2n1C (relative stereo) | SW48 human colorectal cancer cells | CC50 | 389 |
| CN(C)c1nc2cc(S(=O)(=O)N(C)c3ccc([C@H]4CCC[C@@H](C(=O)Nc5ccc(C(F)(F)F)cc5F)[C@@H]4C(=O)O)cc3)ccc2n1C | SW48 human colorectal cancer cells | CC50 | 6.17 |

Okay, next one:
*Q* Find the recorded CC50 belonging to Cc1nc2cc(S(=O)(=O)N(C)c3ccc([C@H]4C[C@H](N5CC6(F)CC5C6)C[C@@H](C(=O)Nc5ccc(C(F)(F)F)cc5F)[C@@H]4C(=O)O)cc3)ccc2n1C (relative stereo) and report it.
*A* 389

====

Parameter log10 of CC50: see the listing below.
tested on: SW48 human colorectal cancer cells; experiment: Calculated free drug potency in SW48 cell assay, corrected with media free fraction (Example C); type: cell-based; conditions: Homo sapiens, SW48, SW48 pCC50 corrected with measured free fraction in cell assay media
Where a name gives a salt, the structure may show the parent alone.
// do not treat as linear: log10 of CC50, unit nM

| Compound | Assay system | log10 of CC50 |
| --- | --- | --- |
| CN[C@H]1C[C@H](c2ccc(N(C)S(=O)(=O)c3ccc4c(c3)nc(C)n4C)cc2)[C@@H](C(=O)O)[C@H](C(=O)Nc2ccc(C(F)(F)F)cc2F)C1 (single isomer, unassigned) [Example 254] | SW48 human colorectal cancer cells | 3.37 |
| Cc1nc2cc(S(=O)(=O)Nc3ccc([C@@H]4CCC[C@H](C(=O)Nc5ccc(C(F)(F)F)cc5F)[C@H]4C(=O)O)cc3)ccc2n1C (single isomer, unassigned) [Example 224] | SW48 human colorectal cancer cells | 1.25 |
| Cc1nc2c(F)c(S(=O)(=O)N(C)c3ccc([C@H]4CCC[C@@H](C(=O)Nc5ccc(C(F)(F)F)cc5F)[C@@H]4C(=O)O)cc3)ccc2n1C [Example 128] | SW48 human colorectal cancer cells | 1.66 |

*Q* Return log10 of CC50 measured with SW48 human colorectal cancer cells given this compound: Cc1nc2cc(S(=O)(=O)N(C)c3ccc([C@@H]4CCC[C@H](C(=O)Nc5c(F)cc(C(C)C)cc5F)[C@H]4C(=O)O)cc3)ccc2n1C (single isomer, unassigned) [Example 171]
*A* 1.70

*Q* Proceed to Cc1nc2cc(S(=O)(=O)N(C)c3ccc([C@H]4CCC[C@@H](C(=O)Nc5ccc(C(F)(F)F)cc5F)[C@@H]4C(=O)O)cc3)cc([C@H]3CCCNC3)c2n1C (relative stereo) [Example 269, hydrochloride]
*A* 2.81

*Q* Proceed to Cc1nc2cc(S(=O)(=O)N(C)c3ccc([C@H]4CCC[C@@H](C(=O)Nc5ccc(C(F)(F)F)cc5F)[C@@H]4C(=O)O)cc3)cc(CCN(C)C)c2n1C [Example 290]
*A* 2.21

*Q* Proceed to Cc1nc2cc(S(=O)(=O)N(C)c3ccc([C@H]4CCC[C@@H](C(=O)Nc5ccc(C(F)(F)F)cc5F)[C@@H]4C(=O)O)cc3)c(F)cc2n1C [Example 127]
*A* 1.65

*Q* Proceed to CN(c1ccc([C@H]2CCC[C@@H](C(=O)Nc3ccc(C(F)(F)F)cc3F)[C@@H]2C(=O)O)cc1)S(C)(=O)=O [Example 285]
*A* 3.54

*Q* Proceed to CCOC1CC(C(=O)Nc2ccc(C(F)(F)F)cc2)C(C(=O)O)C(c2ccc(N(C)S(=O)(=O)c3ccc4c(c3)nc(C)n4C)cc2)C1 (centres unmarked) [Example 330]
*A* 1.61
